- target-system: UniProt:Q9UQD0
- method-description: INaL inhibition at hNaV1.6, PatchXpress electrophysiology
- Format: cell-based
- test-context: HEK293; 1 μM; HEK-293 cells expressing hNaV1.6; late current evoked by 300 nM ATX-II; read-out: INaL v1.6 (1 μM, % Inhibition)
outcome-measure: inhibition at 1 µM

Sample answers from the record:
molecular_string=FC(F)(F)OCc1ccc(-c2ccc3nnc(C(F)(F)F)n3n2)cc1 outcome_measure="inhibition at 1 µM" obs_value="> 70%"
molecular_string=Cc1ccc(OC(F)(F)F)cc1-c1ccc2nnc(C(F)(F)F)n2n1 outcome_measure="inhibition at 1 µM" obs_value="< 30%"

query: Tell me the measured inhibition at 1 µM of `FC1(F)CC(c2nnc3cnc(-c4ccc(OC(F)(F)F)cc4)cn23)C1` , please.
result: 30 to 70%

query: Next: `COc1cc(C(F)(F)F)ccc1-c1ccc2nnc(C(F)(F)F)n2n1`
result: > 70%

query: Next: `COCc1cc(-c2ccc3nnc(C(F)F)n3n2)ccc1OC(F)(F)F`
result: 30 to 70%

---

- target-system: CYP1A2 (Homo sapiens (Human), UniProt P05177)
- Sequence (P05177 whole entry): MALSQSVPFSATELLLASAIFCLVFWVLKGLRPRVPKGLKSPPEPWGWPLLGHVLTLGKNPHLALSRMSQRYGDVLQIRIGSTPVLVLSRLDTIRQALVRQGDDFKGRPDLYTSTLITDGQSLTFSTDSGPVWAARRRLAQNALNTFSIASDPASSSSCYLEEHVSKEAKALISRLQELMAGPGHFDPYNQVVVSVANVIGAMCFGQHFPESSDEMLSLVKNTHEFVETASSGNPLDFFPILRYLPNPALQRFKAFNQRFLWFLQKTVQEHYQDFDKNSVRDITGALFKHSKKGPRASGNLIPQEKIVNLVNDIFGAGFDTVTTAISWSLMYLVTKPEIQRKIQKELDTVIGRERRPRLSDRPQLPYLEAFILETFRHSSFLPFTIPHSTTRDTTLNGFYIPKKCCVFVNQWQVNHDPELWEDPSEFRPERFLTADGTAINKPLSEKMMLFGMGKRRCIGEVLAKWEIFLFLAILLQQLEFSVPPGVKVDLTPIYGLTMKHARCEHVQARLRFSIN
- method-description: CYP1A2 inhibition in human liver microsomes
- Assay type: in vitro ADME
- test-context: pooled human liver microsomes, marker substrate Phenacetin
outcome-measure: IC50

Sample answers from the record:
compound="C[C@H](Oc1ncc(-c2ccc3nnc(C(F)(F)F)n3n2)cc1F)C(F)(F)F (single isomer, unassigned)" obs_value="> 30 µM"
compound=FC(F)(F)Oc1ccc(-c2cn3c(C4(F)CC4)nnc3cn2)cc1 obs_value="1 to 15 µM"
compound="C[C@H](Oc1ncc(-c2cn3c(C(F)(F)F)nnc3cn2)cc1F)C(F)(F)F (single isomer, unassigned)" obs_value="> 30 µM"
compound="C[C@@H](Oc1ncc(-c2ccc3nnc(C(F)(F)F)n3n2)cc1F)C(F)(F)F (single isomer, unassigned)" obs_value="> 30 µM"
compound="C[C@@H](Oc1ncc(-c2cn3c(C(F)(F)F)nnc3cn2)cc1F)C(F)(F)F (single isomer, unassigned)" obs_value="> 30 µM"

# context switch: different compound, same IC50
query: Tell me the measured IC50 of `Cc1cc(C2(C#N)CC2)ccc1-c1ccc2nnc(C(F)(F)F)n2n1` , please.
result: 15 to 30 µM

---

- target-system: human NaV1.6 (hNaV1.6) (Homo sapiens (Human), UniProt Q9UQD0)
- Sequence (Q9UQD0 whole entry): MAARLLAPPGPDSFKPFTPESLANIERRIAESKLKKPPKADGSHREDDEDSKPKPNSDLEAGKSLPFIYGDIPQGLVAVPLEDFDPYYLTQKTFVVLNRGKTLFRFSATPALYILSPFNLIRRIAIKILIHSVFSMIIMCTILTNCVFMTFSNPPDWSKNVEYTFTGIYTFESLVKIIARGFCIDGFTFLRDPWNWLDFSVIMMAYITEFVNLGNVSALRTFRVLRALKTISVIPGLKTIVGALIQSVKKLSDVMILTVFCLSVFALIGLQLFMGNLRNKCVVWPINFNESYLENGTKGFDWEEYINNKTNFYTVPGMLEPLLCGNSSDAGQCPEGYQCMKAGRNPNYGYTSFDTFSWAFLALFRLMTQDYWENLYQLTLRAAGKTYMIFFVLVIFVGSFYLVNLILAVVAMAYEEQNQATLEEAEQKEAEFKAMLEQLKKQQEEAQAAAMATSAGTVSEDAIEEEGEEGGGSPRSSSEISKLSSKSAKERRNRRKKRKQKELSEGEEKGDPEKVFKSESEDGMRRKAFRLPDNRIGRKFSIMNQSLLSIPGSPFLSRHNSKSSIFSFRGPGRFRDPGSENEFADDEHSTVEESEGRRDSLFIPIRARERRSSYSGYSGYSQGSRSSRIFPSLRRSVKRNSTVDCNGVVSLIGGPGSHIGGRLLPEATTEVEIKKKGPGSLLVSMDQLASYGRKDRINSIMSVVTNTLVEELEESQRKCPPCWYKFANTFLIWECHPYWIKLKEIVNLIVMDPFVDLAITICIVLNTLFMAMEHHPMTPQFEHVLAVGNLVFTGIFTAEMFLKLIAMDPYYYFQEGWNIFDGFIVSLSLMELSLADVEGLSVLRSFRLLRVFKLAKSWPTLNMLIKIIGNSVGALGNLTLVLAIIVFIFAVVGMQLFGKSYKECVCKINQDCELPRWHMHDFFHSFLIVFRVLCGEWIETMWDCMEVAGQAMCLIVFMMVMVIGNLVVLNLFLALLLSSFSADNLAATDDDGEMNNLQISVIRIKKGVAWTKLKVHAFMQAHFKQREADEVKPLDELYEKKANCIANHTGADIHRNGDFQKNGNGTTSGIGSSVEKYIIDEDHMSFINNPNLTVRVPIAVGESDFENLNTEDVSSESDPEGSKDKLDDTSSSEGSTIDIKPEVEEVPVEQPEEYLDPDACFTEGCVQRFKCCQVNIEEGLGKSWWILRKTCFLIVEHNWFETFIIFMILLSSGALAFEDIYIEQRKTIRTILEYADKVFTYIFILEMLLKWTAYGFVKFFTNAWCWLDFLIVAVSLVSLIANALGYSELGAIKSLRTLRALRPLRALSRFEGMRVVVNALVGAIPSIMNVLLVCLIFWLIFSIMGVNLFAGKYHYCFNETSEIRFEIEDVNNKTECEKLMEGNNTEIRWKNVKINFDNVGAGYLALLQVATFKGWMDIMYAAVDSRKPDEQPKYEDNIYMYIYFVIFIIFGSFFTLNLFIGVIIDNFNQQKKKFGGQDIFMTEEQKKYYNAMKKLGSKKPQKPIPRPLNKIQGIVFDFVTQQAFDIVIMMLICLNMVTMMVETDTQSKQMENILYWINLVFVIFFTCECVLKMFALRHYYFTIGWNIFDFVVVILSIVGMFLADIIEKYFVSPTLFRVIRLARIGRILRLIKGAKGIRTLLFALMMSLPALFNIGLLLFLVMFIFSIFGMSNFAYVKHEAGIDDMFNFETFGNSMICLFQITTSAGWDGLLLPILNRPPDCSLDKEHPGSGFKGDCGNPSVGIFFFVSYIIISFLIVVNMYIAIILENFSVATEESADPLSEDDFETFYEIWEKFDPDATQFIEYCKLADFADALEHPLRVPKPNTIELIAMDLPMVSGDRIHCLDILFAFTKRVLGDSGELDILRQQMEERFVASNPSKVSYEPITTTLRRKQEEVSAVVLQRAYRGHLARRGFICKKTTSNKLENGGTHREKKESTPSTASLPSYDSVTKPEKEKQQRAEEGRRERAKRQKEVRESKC
- method-description: INaL inhibition at hNaV1.6, PatchXpress electrophysiology
- Format: cell-based
- test-context: HEK293; 1 μM; HEK-293 cells expressing hNaV1.6; late current evoked by 300 nM ATX-II; read-out: INaL v1.6 (1 μM, % Inhibition)
Some compounds, each annotated with its measured inhibition at 1 µM.

compound=COC(F)(F)c1nnc2ccc(-c3ccc(OC(F)(F)F)cc3)nn12 obs_value="> 70%"
compound=FC(F)(F)Oc1ccc(-c2cn3c([C@H]4CCOC4)nnc3cn2)cc1 obs_value="< 30%"
compound=COCc1cc(-c2cn3c(C(F)F)nnc3cn2)ccc1OC(F)(F)F obs_value="< 30%"
compound=Cc1cc(OC2CC(F)(F)C2)ccc1-c1ccc2nnc(C(F)(F)F)n2n1 obs_value="30 to 70%"
compound=CC(C)Oc1ccc(-c2cn3c(C(F)(F)F)nnc3cn2)cc1 obs_value="> 70%"

query: Tell me the measured inhibition at 1 µM of `FC(F)c1nnc2cnc(-c3ccc(COC(F)(F)F)cc3)cn12` , please.
result: 30 to 70%

---

Some compounds, each annotated with its measured inhibition at 1 µM.
- target-system: human NaV1.6 (hNaV1.6) (Homo sapiens (Human))
- method-description: INaL inhibition at hNaV1.6, PatchXpress electrophysiology
- Assay type: cell-based
- test-context: HEK293; 1 μM; HEK-293 cells expressing hNaV1.6; late current evoked by 300 nM ATX-II; read-out: INaL v1.6 (1 μM, % Inhibition)

Sample answers from the record:
compound=FC(F)(F)Oc1ccc(-c2cn3c(C4CC4)nnc3cn2)cc1 target_system="human NaV1.6 (hNaV1.6) (Homo sapiens (Human))" outcome_measure="inhibition at 1 µM" obs_value="30 to 70%"
compound=COc1nnc2cnc(-c3ccc(OC(F)(F)F)cc3)cn12 target_system="human NaV1.6 (hNaV1.6) (Homo sapiens (Human))" outcome_measure="inhibition at 1 µM" obs_value="< 30%"
compound=Fc1cc(OC(F)(F)F)ccc1-c1cn2c(C(F)(F)F)nnc2cn1 target_system="human NaV1.6 (hNaV1.6) (Homo sapiens (Human))" outcome_measure="inhibition at 1 µM" obs_value="< 30%"

query: Tell me the measured inhibition at 1 µM of `Fc1cc(-c2ccc3nnc(C(F)(F)F)n3n2)ccc1OC1CC(F)(F)C1` , please.
result: 30 to 70%

query: Next: `Fc1c(OC(F)(F)F)cccc1-c1ccc2nnc(C(F)(F)F)n2n1`
result: < 30%

query: Next: `Fc1cc(-c2ccc3nnc(C(F)(F)F)n3n2)cnc1OCC(F)(F)F`
result: > 70%

query: Next: `FC(F)(F)c1ccc(-c2ccc3nnc(C(F)(F)F)n3n2)cc1`
result: > 70%

query: Next: CC(Oc1ncc(-c2ccc3nnc(C(F)(F)F)n3n2)cc1F)C(F)(F)F (stereo not drawn)
result: > 70%

query: Next: `CC(C)(O)c1ccc(-c2ccc3nnc(C(F)(F)F)n3n2)cc1`
result: < 30%

---

- target-system: human NaV1.5 late sodium current (INaL) (Homo sapiens (Human), UniProt Q14524)
- Sequence (Q14524 whole entry): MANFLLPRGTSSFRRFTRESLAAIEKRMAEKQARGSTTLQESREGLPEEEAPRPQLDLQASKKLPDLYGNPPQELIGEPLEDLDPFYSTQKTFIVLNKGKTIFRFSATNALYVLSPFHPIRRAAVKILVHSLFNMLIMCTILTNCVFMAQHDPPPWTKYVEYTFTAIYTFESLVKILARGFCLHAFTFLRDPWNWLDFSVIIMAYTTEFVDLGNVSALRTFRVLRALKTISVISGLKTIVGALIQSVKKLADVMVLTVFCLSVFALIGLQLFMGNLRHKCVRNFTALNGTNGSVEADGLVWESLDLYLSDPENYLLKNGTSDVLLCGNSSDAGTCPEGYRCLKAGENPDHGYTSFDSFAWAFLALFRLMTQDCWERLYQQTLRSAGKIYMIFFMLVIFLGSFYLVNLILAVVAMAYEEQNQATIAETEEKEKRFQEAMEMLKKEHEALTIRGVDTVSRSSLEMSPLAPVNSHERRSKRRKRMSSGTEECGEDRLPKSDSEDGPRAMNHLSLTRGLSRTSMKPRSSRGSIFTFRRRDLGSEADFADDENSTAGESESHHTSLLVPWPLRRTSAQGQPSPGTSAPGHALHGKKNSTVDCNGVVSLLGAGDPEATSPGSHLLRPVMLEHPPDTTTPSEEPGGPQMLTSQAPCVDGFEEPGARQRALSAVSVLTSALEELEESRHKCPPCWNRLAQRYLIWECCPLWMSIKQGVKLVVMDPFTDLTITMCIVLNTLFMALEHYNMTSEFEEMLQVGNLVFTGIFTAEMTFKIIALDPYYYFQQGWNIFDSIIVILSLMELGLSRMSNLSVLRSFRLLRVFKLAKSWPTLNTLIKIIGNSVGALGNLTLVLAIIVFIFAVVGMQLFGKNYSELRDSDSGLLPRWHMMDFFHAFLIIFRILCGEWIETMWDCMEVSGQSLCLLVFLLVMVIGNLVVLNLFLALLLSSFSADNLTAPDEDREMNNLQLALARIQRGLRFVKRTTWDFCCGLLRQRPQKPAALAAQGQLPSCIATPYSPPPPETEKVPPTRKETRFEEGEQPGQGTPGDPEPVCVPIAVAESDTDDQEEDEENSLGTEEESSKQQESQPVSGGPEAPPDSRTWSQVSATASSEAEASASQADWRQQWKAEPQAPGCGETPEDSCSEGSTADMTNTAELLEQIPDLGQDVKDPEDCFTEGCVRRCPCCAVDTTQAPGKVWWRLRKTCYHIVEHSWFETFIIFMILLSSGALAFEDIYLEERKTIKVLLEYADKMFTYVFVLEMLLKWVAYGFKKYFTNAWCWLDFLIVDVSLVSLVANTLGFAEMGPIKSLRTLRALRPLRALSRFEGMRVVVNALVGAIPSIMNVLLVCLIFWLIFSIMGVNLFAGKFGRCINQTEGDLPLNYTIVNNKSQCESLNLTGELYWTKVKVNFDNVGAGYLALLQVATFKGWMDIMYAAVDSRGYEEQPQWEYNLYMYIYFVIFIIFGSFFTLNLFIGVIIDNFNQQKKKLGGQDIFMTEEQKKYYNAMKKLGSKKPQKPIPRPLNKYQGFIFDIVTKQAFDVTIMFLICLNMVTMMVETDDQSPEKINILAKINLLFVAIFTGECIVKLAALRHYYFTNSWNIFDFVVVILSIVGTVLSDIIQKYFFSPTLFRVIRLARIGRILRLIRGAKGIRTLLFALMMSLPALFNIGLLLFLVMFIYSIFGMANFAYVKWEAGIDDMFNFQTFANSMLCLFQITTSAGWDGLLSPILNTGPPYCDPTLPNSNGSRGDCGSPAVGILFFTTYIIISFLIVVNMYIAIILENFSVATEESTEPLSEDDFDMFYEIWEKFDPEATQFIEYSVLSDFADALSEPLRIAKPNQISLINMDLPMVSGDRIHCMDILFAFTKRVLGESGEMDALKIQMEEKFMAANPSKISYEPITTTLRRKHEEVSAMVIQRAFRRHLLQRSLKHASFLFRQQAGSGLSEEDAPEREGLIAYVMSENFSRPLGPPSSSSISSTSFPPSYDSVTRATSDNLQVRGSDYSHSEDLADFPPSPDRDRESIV
- method-description: INaL inhibition at hNaV1.5, PatchXpress electrophysiology
- Type: cell-based
- test-context: HEK-293 cells expressing recombinant human NaV1.5, HEK-293 cells expressing hNaV1.5, late current evoked by 300 nM ATX-II, read-out: INaL v1.5 (1 μM, % Inhibition)
outcome-measure: inhibition at 1 µM

Sample answers from the record:
compound="Fc1cc(-c2ccc3nnc(C(F)(F)F)n3n2)ccc1OC(F)(F)F [Compound 31]" target_system="human NaV1.5 late sodium current (INaL) (Homo sapiens (Human), UniProt Q14524)" obs_value="> 50%"
compound="Cc1cc(-c2ccc3nnc(C(F)(F)F)n3n2)ccc1OC(F)(F)F [Compound 2]" target_system="human NaV1.5 late sodium current (INaL) (Homo sapiens (Human), UniProt Q14524)" obs_value="> 50%"
compound="FC(F)(F)Cc1nnc2ccc(-c3ccc(OC(F)(F)F)cc3)nn12 [Compound 6]" target_system="human NaV1.5 late sodium current (INaL) (Homo sapiens (Human), UniProt Q14524)" obs_value="> 50%"
compound="FC(F)(F)COc1ccc(-c2ccc3nnc(C(F)(F)F)n3n2)cn1 [Compound 30]" target_system="human NaV1.5 late sodium current (INaL) (Homo sapiens (Human), UniProt Q14524)" obs_value="> 50%"
compound="COc1cc(OC(F)(F)F)ccc1-c1ccc2nnc(C3CC3(F)F)n2n1 (stereo not shown) [Compound 15]" target_system="human NaV1.5 late sodium current (INaL) (Homo sapiens (Human), UniProt Q14524)" obs_value="> 50%"

query: Tell me the measured inhibition at 1 µM of COc1cc(OC(F)(F)F)ccc1-c1ccc2nnc(C(F)F)n2n1 [Compound 16] , please.
result: > 50%

query: Next: COc1cc(C2(C#N)CC2)ccc1-c1ccc2nnc(C(F)(F)F)n2n1 [Compound 22]
result: > 50%

query: Next: FC(F)(F)Oc1ccc(-c2ccc3nnc(CC4CCCO4)n3n2)cc1 (stereo not shown) [Compound 11]
result: < 50%

query: Next: Fc1cc(OC(F)(F)F)ccc1-c1ccc2nnc(C(F)(F)F)n2n1 [Compound 23]
result: > 50%

query: Next: FC(F)(F)c1ccc(-c2ccc3nnc(C(F)(F)F)n3n2)cc1 [Compound 1]
result: > 50%

---

- method-description: PK rat clearance experiment
- Type: in vivo
- test-context: male Sprague-Dawley rats, single intravenous bolus 0.5 mg/kg, plasma
outcome-measure: clearance (mL/min/kg)

Sample answers from the record:
molecule="Cc1cc(OC(F)(F)F)ccc1-c1cn2c(C(F)F)nnc2cn1 [Compound 49]" obs_value=7.6
molecule="C[C@@H](Oc1ncc(-c2cn3c(C(F)(F)F)nnc3cn2)cc1F)C(F)(F)F (single isomer, unassigned) [Compound 124]" obs_value=15.9

(I) Fc1cc(-c2ccc3nnc(C(F)(F)F)n3n2)cnc1OCC(F)(F)F [Compound 107]
(II) FC(F)(F)Oc1ccc(-c2ccc3nnc(C4(F)CC4)n3n2)cc1 [Compound 61]
(III) FC1(F)CC(Oc2ccc(-c3ccc4nnc(C(F)(F)F)n4n3)cc2)C1 [Compound 59]
query: Hi! Can you put these in order of clearance, lowest number first? Form field (ranking): labels in requested order.
result: II, I, III
(II: 1.6 mL/min/kg, I: 13.9 mL/min/kg, III: 39.8 mL/min/kg)

---

- target-system: human NaV1.6 (hNaV1.6) (Homo sapiens (Human), UniProt Q9UQD0)
- method-description: INaL inhibition at hNaV1.6, PatchXpress electrophysiology
- Assay type: cell-based
- test-context: HEK293, read-out: INaL v1.6 (1 μM, % Inhibition)
Some compounds, each annotated with its measured inhibition at 1 µM.

Sample answers from the record:
compound=Cc1nnc2cnc(-c3ccc(OC(F)(F)F)cc3)cn12 target_system="human NaV1.6 (hNaV1.6) (Homo sapiens (Human), UniProt Q9UQD0)" obs_value="< 30%"
compound=CC(C)(C#N)c1ccc(-c2cn3c(C(F)F)nnc3cn2)cc1 target_system="human NaV1.6 (hNaV1.6) (Homo sapiens (Human), UniProt Q9UQD0)" obs_value="< 30%"
compound=Cc1cc(C2(C#N)CC2)ccc1-c1ccc2nnc(C(F)(F)F)n2n1 target_system="human NaV1.6 (hNaV1.6) (Homo sapiens (Human), UniProt Q9UQD0)" obs_value="30 to 70%"
compound="FC(F)(F)c1nnc2ccc(-c3ccc([C@@H]4CC4(F)F)cc3)nn12 (single isomer, unassigned)" target_system="human NaV1.6 (hNaV1.6) (Homo sapiens (Human), UniProt Q9UQD0)" obs_value="> 70%"

query: Can you look up inhibition at 1 µM on human NaV1.6 (hNaV1.6) (Homo sapiens (Human), UniProt Q9UQD0) for FC(F)(F)c1nnc2ccc(-c3ccc(C4CC4(F)F)cc3)nn12 (centres unmarked) ?
result: > 70%
